target.under.test: hNav1.8 (Homo sapiens, UniProt Q9Y5Y9)
Construct: host or cells: HEK cells, stably transfected
Sequence (Q9Y5Y9 whole entry): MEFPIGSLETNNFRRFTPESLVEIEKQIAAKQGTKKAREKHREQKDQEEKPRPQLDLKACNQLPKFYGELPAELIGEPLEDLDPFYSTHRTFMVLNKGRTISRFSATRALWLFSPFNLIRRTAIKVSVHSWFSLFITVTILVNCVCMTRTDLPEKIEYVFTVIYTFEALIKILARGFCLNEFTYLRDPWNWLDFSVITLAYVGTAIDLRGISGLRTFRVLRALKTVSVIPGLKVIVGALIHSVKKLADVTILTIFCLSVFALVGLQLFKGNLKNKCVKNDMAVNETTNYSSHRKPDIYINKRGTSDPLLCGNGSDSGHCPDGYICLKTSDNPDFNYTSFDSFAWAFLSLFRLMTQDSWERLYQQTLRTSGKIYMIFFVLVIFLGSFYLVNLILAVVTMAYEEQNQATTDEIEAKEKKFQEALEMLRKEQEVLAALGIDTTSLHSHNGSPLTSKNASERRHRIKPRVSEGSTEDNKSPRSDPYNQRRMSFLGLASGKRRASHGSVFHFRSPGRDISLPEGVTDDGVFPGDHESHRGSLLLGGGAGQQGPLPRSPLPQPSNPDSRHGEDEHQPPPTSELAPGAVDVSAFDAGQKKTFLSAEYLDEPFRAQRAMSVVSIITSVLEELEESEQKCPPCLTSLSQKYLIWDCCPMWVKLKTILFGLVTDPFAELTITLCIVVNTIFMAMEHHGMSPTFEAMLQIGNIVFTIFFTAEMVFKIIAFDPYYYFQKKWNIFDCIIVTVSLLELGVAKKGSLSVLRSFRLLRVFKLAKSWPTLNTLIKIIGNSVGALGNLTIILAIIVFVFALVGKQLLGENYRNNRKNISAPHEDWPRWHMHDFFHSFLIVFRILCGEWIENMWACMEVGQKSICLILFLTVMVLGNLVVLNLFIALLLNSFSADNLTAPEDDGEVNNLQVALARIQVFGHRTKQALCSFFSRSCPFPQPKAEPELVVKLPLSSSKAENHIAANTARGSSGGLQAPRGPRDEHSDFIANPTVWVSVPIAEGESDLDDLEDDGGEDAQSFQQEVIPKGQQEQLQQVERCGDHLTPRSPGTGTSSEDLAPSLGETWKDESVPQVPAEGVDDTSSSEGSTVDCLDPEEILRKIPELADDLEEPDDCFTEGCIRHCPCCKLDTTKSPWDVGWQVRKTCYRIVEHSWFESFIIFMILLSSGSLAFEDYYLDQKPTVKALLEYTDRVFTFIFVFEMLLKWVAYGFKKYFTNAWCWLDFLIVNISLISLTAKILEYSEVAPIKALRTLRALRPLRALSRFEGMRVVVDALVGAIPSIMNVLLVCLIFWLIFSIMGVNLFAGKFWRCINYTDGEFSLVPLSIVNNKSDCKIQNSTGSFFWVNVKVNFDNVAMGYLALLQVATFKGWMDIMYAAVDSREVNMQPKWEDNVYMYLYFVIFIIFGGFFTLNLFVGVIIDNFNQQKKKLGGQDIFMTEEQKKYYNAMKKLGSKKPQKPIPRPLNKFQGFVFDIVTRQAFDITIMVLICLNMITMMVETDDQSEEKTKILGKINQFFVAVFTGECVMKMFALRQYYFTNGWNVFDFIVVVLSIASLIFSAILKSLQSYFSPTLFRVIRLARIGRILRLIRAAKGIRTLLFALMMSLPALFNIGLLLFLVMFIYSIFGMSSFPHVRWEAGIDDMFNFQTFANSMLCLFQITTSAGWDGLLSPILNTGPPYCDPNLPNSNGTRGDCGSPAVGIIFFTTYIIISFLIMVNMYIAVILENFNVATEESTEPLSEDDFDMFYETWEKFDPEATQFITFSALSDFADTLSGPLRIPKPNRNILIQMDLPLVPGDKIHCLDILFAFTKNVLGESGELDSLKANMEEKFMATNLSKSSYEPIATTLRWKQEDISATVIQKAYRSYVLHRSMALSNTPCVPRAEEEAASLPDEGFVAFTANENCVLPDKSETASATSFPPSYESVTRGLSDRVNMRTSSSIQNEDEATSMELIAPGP
procedure.summary: hNav1.8 whole-cell patch-clamp electrophysiology (conventional or PatchXpress 7000) in stably transfected HEK cells
Assay type: cell-based
run.parameters: estimated IC50 calculated from single point % inhibition; HEK cells expressing hNav1.8; 8 sec prepulse to V1/2, 20 msec step to 0 mV; average of replicates; read-out: Nav1.8 EIC50
pIC50: −log10 of the molar value.
pIC50 of 6 or higher: Criterion met. Under 6: Criterion not met.

| chem.smiles | answer.label |
| --- | --- |
| CO[C@H](C)[C@H](N)c1nc2cc(C3CCCC3)ccc2[nH]1 | Criterion met |
| N#Cc1ccc(-c2ccc3[nH]c(C4(N)Cc5ccccc5C4)nc3c2)cc1 | Criterion met |
| C[C@@H](O)[C@H](N)c1nc2cc(-c3ccc(C#N)cc3F)ccc2[nH]1 | Criterion met |
| CC(C)(N)c1nc2cc(-c3cccc(C#N)c3)ccc2[nH]1 | Criterion not met |
| CC(C)(N)c1nc2cc(-c3cc(F)cc(C#N)c3)ccc2[nH]1 | Criterion not met |
| C[C@@H](O)[C@H](N)c1nc2cc(-c3ccc(C#N)cc3C(F)(F)F)ccc2[nH]1 | Criterion met |
| CC(C)(C)c1ccc2[nH]c([C@@H]3CCN3)nc2c1 | Criterion met |
| CC[C@@H](O)[C@H](N)c1nc2cc(C(C)(C)C)ccc2[nH]1 | Criterion met |
| C[C@H](O)[C@H](N)c1nc2cc(C(C)(C)C)ccc2[nH]1 | Criterion met |
| C[C@@H](C(N)=O)[C@H](N)c1cn2cc(C(C)(C)C)ccc2n1 | Criterion met |
| CO[C@H](C)[C@H](N)c1nc2cc(CC(C)(C)C)c(F)cc2[nH]1 | Criterion met |
| CCCC[C@@H](N)c1nc2cc(-c3ccc(C#N)cc3)ccc2[nH]1 | Criterion met |
| CCCCc1ccc2[nH]c(C(C)(C)N)nc2c1 | Criterion not met |
| CC(C)(C)c1ccc2[nH]c([C@@H](N)CO)nc2c1 | Criterion met |
| CC(C)(C)c1ccc2[nH]c([C@](C)(N)CO)nc2c1 | Criterion met |
| CO[C@@H](C)[C@H](N)c1nc2cc(C(C)(C)C)ccc2[nH]1 | Criterion met |

###

target.under.test: hNav1.8 (Homo sapiens, UniProt Q9Y5Y9)
Construct: host or cells: HEK cells, stably transfected
procedure.summary: hNav1.8 whole-cell patch-clamp electrophysiology (conventional or PatchXpress 7000) in stably transfected HEK cells
Format: cell-based
pIC50: −log10 of the molar value.

| chem.smiles | pIC50 |
| --- | --- |
| CC(C)(C)c1ccc2[nH]c(C3(N)CCCCC3)nc2c1 | 6.33 |

###

target.under.test: hNav1.8 (Homo sapiens)
Construct: host or cells: HEK cells, stably transfected
procedure.summary: hNav1.8 whole-cell patch-clamp electrophysiology (conventional or PatchXpress 7000) in stably transfected HEK cells
Format: cell-based
run.parameters: estimated IC50 calculated from single point % inhibition; HEK cells expressing hNav1.8; 8 sec prepulse to V1/2, 20 msec step to 0 mV; average of replicates; read-out: Nav1.8 EIC50
Checkbox rule: IC50 lower than 400 nM = 1.0; IC50 not lower than 400 nM = 0.0.

| compound | target.under.test | answer.label |
| --- | --- | --- |
| COC(C)(C)C(N)c1nc2cc(-c3ccc(C#N)cc3)ccc2[nH]1 (stereo not shown) | hNav1.8 (Homo sapiens) | 0.0 |
| CCC(C)(C)c1ccc2[nH]c([C@@H](N)[C@@H](C)O)nc2c1 | hNav1.8 (Homo sapiens) | 1.0 |
| COC[C@H](N)c1nc2cc(-c3ccc(C#N)cc3)ccc2[nH]1 | hNav1.8 (Homo sapiens) | 1.0 |
| CC(N)(CO)c1nc2cc(-c3ccc(C#N)c(F)c3)ccc2[nH]1 (stereo not shown) | hNav1.8 (Homo sapiens) | 1.0 |
| CCC(C)(C)c1ccc2[nH]c([C@H]3NCC[C@@H]3O)nc2c1 | hNav1.8 (Homo sapiens) | 0.0 |
| NC(=O)C[C@H](N)c1nc2cc(C34CC5CC(CC(C5)C3)C4)ccc2[nH]1 | hNav1.8 (Homo sapiens) | 1.0 |
| N#Cc1ccc(-c2ccc3[nH]c([C@@H]4C[C@H](F)CN4)nc3c2)cc1 | hNav1.8 (Homo sapiens) | 0.0 |
| N#Cc1ccc(-c2ccc3[nH]c(C4(N)Cc5ccccc5C4)nc3c2)cc1F | hNav1.8 (Homo sapiens) | 1.0 |
| CC(C)C[C@H](N)c1nc2cc(C(C)(C)C)ccc2[nH]1 | hNav1.8 (Homo sapiens) | 0.0 |
| C[C@H](N)c1nc2cc(C(C)(C)C)ccc2[nH]1 | hNav1.8 (Homo sapiens) | 0.0 |
| C[C@@H](C(N)=O)[C@H](N)c1nc2cc(C(C)(C)C)ccc2[nH]1 (single isomer, unassigned) | hNav1.8 (Homo sapiens) | 1.0 |
| CO[C@H](C)[C@H](N)c1nc2cc(-c3ccc(C#N)c(F)c3)ccc2[nH]1 | hNav1.8 (Homo sapiens) | 1.0 |
| CO[C@H](C)[C@@H](N)c1nc2cc(C(C)(C)C)ccc2[nH]1 | hNav1.8 (Homo sapiens) | 0.0 |
| CC[C@@H](N)c1nc2cc(-c3ccc(C#N)cc3)ccc2[nH]1 | hNav1.8 (Homo sapiens) | 0.0 |
| CCC(C)(C)c1ccc2[nH]c([C@@H](C)N)nc2c1 | hNav1.8 (Homo sapiens) | 0.0 |
| CC(C)(C)c1ccc2[nH]c(C3(N)CCC3)nc2c1 | hNav1.8 (Homo sapiens) | 0.0 |
| CC(C)(C)[C@H](N)c1nc2cc(-c3ccc(C#N)cc3)ccc2[nH]1 | hNav1.8 (Homo sapiens) | 0.0 |
| N#Cc1ccc(-c2ccc3[nH]c([C@@H](N)c4ccccc4)nc3c2)cc1 | hNav1.8 (Homo sapiens) | 1.0 |
| CC(C)(C)[C@@H](N)c1nc2cc(-c3ccc(C#N)cc3)ccc2[nH]1 | hNav1.8 (Homo sapiens) | 0.0 |
| CC(C)(C)c1ccc2[nH]c(C3(N)CCCC3)nc2c1 | hNav1.8 (Homo sapiens) | 0.0 |
| CC(C)(C)c1ccc2[nH]c([C@@H]3C[C@H](O)CN3)nc2c1 | hNav1.8 (Homo sapiens) | 1.0 |
| CO[C@H](C)[C@H](N)c1nc2cc(C(C)(C)C)ccc2[nH]1 | hNav1.8 (Homo sapiens) | 1.0 |
| CCC(C)(C)c1ccc2[nH]c([C@@H](N)[C@@H](C)OC)nc2c1 | hNav1.8 (Homo sapiens) | 1.0 |
| CC(C)[C@@H](N)c1nc2cc(C(C)(C)C)ccc2[nH]1 | hNav1.8 (Homo sapiens) | 1.0 |
| CO[C@H](C)[C@H](N)c1nc2c(Cl)c(-c3ccc(C#N)c(F)c3)ccc2[nH]1 | hNav1.8 (Homo sapiens) | 1.0 |
| CNC(=O)[C@H](C)[C@H](N)c1nc2cc(C(C)(C)C)ccc2[nH]1 | hNav1.8 (Homo sapiens) | 1.0 |
| CC[C@H](N)c1nc2cc(-c3ccc(C#N)cc3)ccc2[nH]1 | hNav1.8 (Homo sapiens) | 1.0 |
| C[C@H](OC(N)=O)[C@H](N)c1nc2cc(C(C)(C)C)ccc2[nH]1 | hNav1.8 (Homo sapiens) | 1.0 |
| CC(C)c1ccc2[nH]c([C@H](N)[C@@H](C)O)nc2c1 | hNav1.8 (Homo sapiens) | 0.0 |
| N#Cc1ccc(-c2ccc3[nH]c([C@H]4NCC[C@@H]4O)nc3c2)cc1 | hNav1.8 (Homo sapiens) | 0.0 |
| CC(C)[C@@H](N)c1nc2cc(-c3ccc(C#N)cc3)ccc2[nH]1 | hNav1.8 (Homo sapiens) | 1.0 |
| C[C@@H](O)[C@H](N)c1nc2c(F)c(-c3ccc(C#N)cc3)ccc2[nH]1 | hNav1.8 (Homo sapiens) | 0.0 |

###

The compounds listed here are annotated with their pIC50.
target.under.test: hNav1.8 (Homo sapiens)
Construct: host or cells: HEK cells, stably transfected
procedure.summary: hNav1.8 whole-cell patch-clamp electrophysiology (conventional or PatchXpress 7000) in stably transfected HEK cells
Type: cell-based
run.parameters: estimated IC50 calculated from single point % inhibition; HEK cells expressing hNav1.8; 8 sec prepulse to V1/2, 20 msec step to 0 mV; average of replicates; read-out: Nav1.8 EIC50
pIC50: −log10 of the molar value.

| compound | pIC50 |
| --- | --- |
| C[C@H](O)[C@@H](N)c1nc2cc(-c3ccc(C#N)cc3)ccc2[nH]1 [Example 62] | 6.24 |
| CC(C)(C)Cc1ccc2[nH]c(C3(N)Cc4ccccc4C3)nc2c1 [Example 116] | 6.65 |
| CC(C)(C)Cc1ccc2[nH]c(C(C)(N)CO)nc2c1 (centres unmarked) [Example 115] | 6.56 |
| CO[C@H](C)[C@H](N)c1nc2cc(-c3ccc(C#N)cc3Cl)ccc2[nH]1 [Example 84] | 7.09 |
| CCC(C)(C)c1ccc2[nH]c([C@@H](N)COC)nc2c1 [Example 31] | 6.90 |
